B1: SAT2 (parent)
chain: IIKKVAEVALDKGCSQFRLAVLDW

- Variants of: B1
- ASSAY_DETAILS: protein stability index of a GFP-peptide fusion (GPS, HEK-293T) (PSI 1-6); higher = more stable;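 note: lentivirally expressed fusions sorted by FACS into six bins by GFP to DsRed ratio, PSI derived from sequencing read proportions per bin multiplied by bin number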
- SETTINGS: c terminus: a fixed tail appended
# protein stability index >= 2 gives Y, anything below gives N

Use these answered entries as a reference point.
>  <MUTANT_NAME>
I2P

>  <QUALITATIVE_LABEL>
N

$$$$
>  <MUTANT_NAME>
A20T

>  <QUALITATIVE_LABEL>
Y

$$$$
>  <MUTANT_NAME>
W24N

>  <QUALITATIVE_LABEL>
Y

$$$$
>  <MUTANT_NAME>
I2G

>  <QUALITATIVE_LABEL>
N

$$$$
>  <MUTANT_NAME>
V8K

>  <QUALITATIVE_LABEL>
N

$$$$
>  <MUTANT_NAME>
I2K

>  <QUALITATIVE_LABEL>
Y

$$$$

input: Would you say R18M shows protein stability index at minimum 2?
output: N

input: Would you say F17M shows protein stability index at minimum 2?
output: Y

input: Would you say D23Y shows protein stability index at minimum 2?
output: Y

input: Would you say D23I shows protein stability index at minimum 2?
output: Y

input: Would you say L19H shows protein stability index at minimum 2?
output: Y

input: Would you say I2D shows protein stability index at minimum 2?
output: N

Cited source: the supplement of paper PMC10567573
